# Tested on: AMPK
# assay procedure: Measurement of AMPK activity by Western blot in C2C12 cells
# Assay type: cell-based
# Design: key: fold increase in threonine-172 phosphorylation
# details: 10 μM for 50 minutes, no superscript: Western blot of serine-79 and threonine-172 phosphorylation
result type: AMPK activity (degree of phosphorylation of serine-79 and threonine-172)

Value of AMPK activity (degree of phosphorylation of serine-79 and threonine-172) reported for the compound COc1ccc(CNc2ncnc3ccccc23)cc1 is 1.5

Value of AMPK activity (degree of phosphorylation of serine-79 and threonine-172) reported for the compound Cc1nc(NCCc2cccc(F)c2)c2ccccc2n1 is 4.4

Value of AMPK activity (degree of phosphorylation of serine-79 and threonine-172) reported for the compound COc1ccc(CNc2nc(C(C)c3ccccc3)nc3ccccc23)cc1 (stereo not shown) is 2.1

Next:
Value of AMPK activity (degree of phosphorylation of serine-79 and threonine-172) reported for the compound C1=C(CCNc2nc(-c3ccccc3)nc3ccccc23)CCCC1 is 1.8

Value of AMPK activity (degree of phosphorylation of serine-79 and threonine-172) reported for the compound CCCc1nc(NCc2cc(OC)cc(OC)c2)c2ccccc2n1 is 7.8

Value of AMPK activity (degree of phosphorylation of serine-79 and threonine-172) reported for the compound COc1cccc(CNc2nc(-c3ccco3)nc3ccccc23)c1OC is 1.0

Value of AMPK activity (degree of phosphorylation of serine-79 and threonine-172) reported for the compound CCCc1nc(NCc2ccc(OC)cc2OC)c2ccccc2n1 is 1.4

Value of AMPK activity (degree of phosphorylation of serine-79 and threonine-172) reported for the compound Cc1nc(NCCc2ccccc2)c2ccccc2n1 is 6.7

Value of AMPK activity (degree of phosphorylation of serine-79 and threonine-172) reported for the compound COc1ccccc1CNc1nc(N2CCCCC2)nc2ccccc12 is 1.9

Value of AMPK activity (degree of phosphorylation of serine-79 and threonine-172) reported for the compound COc1cccc(CNc2nc(C(C)c3ccccc3)nc3ccccc23)c1OC (stereo not shown) is 5.2

---

# Test system: AMPK
# assay procedure: Measurement of AMPK activity by Western blot in C2C12 cells
# Type: cell-based
# Set-up: key: fold increase in threonine-172 phosphorylation
# details: 10 μM for 50 minutes, no superscript: Western blot of serine-79 and threonine-172 phosphorylation
# Description: C2C12 cells were cultured and differentiated in the same manner as in Experimental Example 1. Treatment with the test materials was also performed in the same manner as in Experimental Example 1 (10 μM for 50 minutes). […] The AMPK activity was determined from Western blot analysis of the degree of phosphorylation of serine-79 […] acetyl CoA carboxylase and the degree of phosphorylation of threonine-172. […]
result type: AMPK activity (degree of phosphorylation of serine-79 and threonine-172)
Simply state the number, no unit and no words.

# count of solved cases: 4
Field AMPK activity (degree of phosphorylation of serine-79 and threonine-172) (AMPK), entry COc1cc(OC)c(CNc2nc(C(OC)c3ccccc3)nc3ccccc23)c(OC)c1 (centres unmarked) [Compound 370] : 7.7

Field AMPK activity (degree of phosphorylation of serine-79 and threonine-172) (AMPK), entry COc1cc(CNc2nc(C(C)c3ccccc3)nc3ccccc23)cc(OC)c1 (centres unmarked) [Compound 376] : 1.1

Field AMPK activity (degree of phosphorylation of serine-79 and threonine-172) (AMPK), entry CC(C)(C)c1nc(NCc2ccccc2)c2ccccc2n1 [Compound 187] : 0.7

Field AMPK activity (degree of phosphorylation of serine-79 and threonine-172) (AMPK), entry c1ccc(-c2nc(NC3CC3)c3ccccc3n2)cc1 [Compound 110] : 1.6

Next:
Field AMPK activity (degree of phosphorylation of serine-79 and threonine-172) (AMPK), entry COc1cccc(CNc2ncnc3ccccc23)c1OC [Compound 408] : 3.5

---

# System: AMPK
# assay procedure: Measurement of AMPK activity by Western blot in C2C12 cells
# Assay type: cell-based
# Design: key: fold increase in threonine-172 phosphorylation
# details: 10 μM for 50 minutes, no superscript: Western blot of serine-79 and threonine-172 phosphorylation
Listed here: items and their measured AMPK activity (degree of phosphorylation of serine-79 and threonine-172).
Simply state the number, no unit and no words.

# count of solved cases: 4
Value of AMPK activity (degree of phosphorylation of serine-79 and threonine-172) reported for the compound CC(C)CC(C)Nc1nc(-c2ccccc2)nc2ccccc12 (centres unmarked) is 1.8

Value of AMPK activity (degree of phosphorylation of serine-79 and threonine-172) reported for the compound Brc1ccc(CNc2nc(-c3ccccc3)nc3ccccc23)cc1 is 1.7

Value of AMPK activity (degree of phosphorylation of serine-79 and threonine-172) reported for the compound Clc1cccc(CNc2nc(-c3ccccc3)nc3ccccc23)c1 is 2.7

Value of AMPK activity (degree of phosphorylation of serine-79 and threonine-172) reported for the compound COc1cc(CNc2nc(N3CCOCC3)nc3ccccc23)cc(OC)c1 is 2.1

Next:
Value of AMPK activity (degree of phosphorylation of serine-79 and threonine-172) reported for the compound COc1ccc(CNc2nc(C(C)C)nc3ccccc23)cc1 is 5.5

---

# Test system: AMPK
# assay procedure: Measurement of AMPK activity by Western blot in C2C12 cells
# Type: cell-based
# Parameters: key: fold increase in threonine-172 phosphorylation
# details: 10 μM for 50 minutes, no superscript: Western blot of serine-79 and threonine-172 phosphorylation
result type: AMPK activity (degree of phosphorylation of serine-79 and threonine-172)
Simply state the number, no unit and no words.

# count of solved cases: 8
Value of AMPK activity (degree of phosphorylation of serine-79 and threonine-172) reported for the compound COc1ccc(COc2nc(-c3ccccc3)nc3ccccc23)c(OC)c1 [Compound 273] is 1.5

Value of AMPK activity (degree of phosphorylation of serine-79 and threonine-172) reported for the compound Fc1ccccc1CCNc1nc(-c2ccccc2)nc2ccccc12 [Compound 140] is 3.1

Value of AMPK activity (degree of phosphorylation of serine-79 and threonine-172) reported for the compound COc1ccc(OC)c(CNc2nc(-c3ccccc3)nc3ccccc23)c1 [Compound 147] is 1.8

Value of AMPK activity (degree of phosphorylation of serine-79 and threonine-172) reported for the compound COc1ccc(OC)c(CNc2nc(N3CCCC3)nc3ccccc23)c1 [Compound 295] is 0.2

Value of AMPK activity (degree of phosphorylation of serine-79 and threonine-172) reported for the compound COc1cc(CNc2nc(-c3cccs3)nc3ccccc23)cc(OC)c1 [Compound 354] is 0.6

Value of AMPK activity (degree of phosphorylation of serine-79 and threonine-172) reported for the compound COc1cc(CNc2nc(-c3ccco3)nc3ccccc23)cc(OC)c1OC [Compound 345] is 1.1

Value of AMPK activity (degree of phosphorylation of serine-79 and threonine-172) reported for the compound Cc1nc(NCc2cccc(F)c2)c2ccccc2n1 [Compound 171] is 6.6

Value of AMPK activity (degree of phosphorylation of serine-79 and threonine-172) reported for the compound CCCCN(C)c1nc(-c2ccccc2)nc2ccccc12 [Compound 138] is 2.9

Next:
Value of AMPK activity (degree of phosphorylation of serine-79 and threonine-172) reported for the compound COc1ccc(CNc2nc(C)nc3ccccc23)cc1 [Compound 165] is 5.2

Value of AMPK activity (degree of phosphorylation of serine-79 and threonine-172) reported for the compound COc1cccc(CNc2nc(-c3cccs3)nc3ccccc23)c1OC [Compound 353] is 0.8

Value of AMPK activity (degree of phosphorylation of serine-79 and threonine-172) reported for the compound COc1ccc(CNc2nc(-c3cccs3)nc3ccccc23)cc1 [Compound 351] is 0.7

---

# System: AMPK
# assay procedure: Measurement of AMPK activity by Western blot in C2C12 cells
# Type: cell-based
# Set-up: key: fold increase in threonine-172 phosphorylation
# details: 10 μM for 50 minutes, no superscript: Western blot of serine-79 and threonine-172 phosphorylation
result type: AMPK activity (degree of phosphorylation of serine-79 and threonine-172)
Simply state the number, no unit and no words.

Value of AMPK activity (degree of phosphorylation of serine-79 and threonine-172) reported for the molecule COc1ccc(CNc2nc(N3CCCC3)nc3ccccc23)cc1 is 1.1

Value of AMPK activity (degree of phosphorylation of serine-79 and threonine-172) reported for the molecule COc1cc(CNc2nc(C(OC)c3ccccc3)nc3ccccc23)cc(OC)c1 (stereo not drawn) is 1.1

Value of AMPK activity (degree of phosphorylation of serine-79 and threonine-172) reported for the molecule CC(C)c1nc(NCc2cccc(F)c2)c2ccccc2n1 is 2.6

Value of AMPK activity (degree of phosphorylation of serine-79 and threonine-172) reported for the molecule COc1ccc(CNc2nc(C(C)c3ccccc3)nc3ccccc23)c(OC)c1 (stereo not drawn) is 6.1

Value of AMPK activity (degree of phosphorylation of serine-79 and threonine-172) reported for the molecule COc1ccccc1CNc1nc(N2CCCC2)nc2ccccc12 is 2.1

Value of AMPK activity (degree of phosphorylation of serine-79 and threonine-172) reported for the molecule CCOc1nc(NCc2ccc(OC)cc2OC)c2ccccc2n1 is 1.5

Value of AMPK activity (degree of phosphorylation of serine-79 and threonine-172) reported for the molecule O=[N+]([O-])c1cccc(CNc2nc(-c3ccccc3)nc3ccccc23)c1 is 2.0

Value of AMPK activity (degree of phosphorylation of serine-79 and threonine-172) reported for the molecule c1ccc(CCNc2nc(-c3ccccn3)nc3ccccc23)cc1 is 4.9

Value of AMPK activity (degree of phosphorylation of serine-79 and threonine-172) reported for the molecule COc1ccc(CNc2nc(-c3cccs3)nc3ccccc23)c(OC)c1 is 0.7
